test system: J774.1a macrophage cells; experiment: Macrophage TNF-α production (Assay 2); assay type: cell-based; conditions: 10 μg/mL test compound, 100 ng/mL LPS, ELISA; also: key: a ‘+’ indicates a positive result for desired activity; a ‘−’ indicates a negative result for desired activity
endpoint-label: Assay Number 2: Macrophage TNF-α production

compound	val
CC(=O)Oc1cc(C)c2c(c1)C[C@H]1[C@@]2(C)CCC2C(C)(C)CCC[C@@]21C (stereo partly shown)	+
Cc1cc(OC(=O)C(N)Cc2cnc[nH]2)cc2c1[C@]1(C)CCC3C(C)(C)CCC[C@]3(C)[C@H]1C2 (stereo partly shown)	+
Cc1cc(OC(=O)C(CC(=O)O)NC(=O)CCC(=O)O)cc2c1[C@]1(C)CCC3C(C)(C)CCC[C@]3(C)[C@H]1C2 (stereo partly shown)	+
COc1cc(C)c2c(c1O)C[C@@H]1[C@@]3(C)CCCC(C)(C)[C@@H]3CC[C@@]21C	−
